target: hMCR-4 (Homo sapiens (Human)); assay: Competitive inhibition binding assay using [I125]-NDP-α-MSH, hMCR-4; settings: membrane homogenates of HEK-293 cells, human recombinant receptor, averaged, read-out: MC-4 Ki (average)
Sequence (P32245 whole entry): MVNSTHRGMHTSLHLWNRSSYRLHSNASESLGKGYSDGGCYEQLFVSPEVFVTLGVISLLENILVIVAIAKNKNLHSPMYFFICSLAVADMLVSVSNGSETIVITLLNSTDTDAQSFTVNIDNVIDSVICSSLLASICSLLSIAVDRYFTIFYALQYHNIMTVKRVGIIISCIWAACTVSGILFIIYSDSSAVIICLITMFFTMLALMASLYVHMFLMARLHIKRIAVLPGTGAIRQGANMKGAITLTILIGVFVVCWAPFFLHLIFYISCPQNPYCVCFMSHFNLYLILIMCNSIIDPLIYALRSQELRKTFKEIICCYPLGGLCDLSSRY
pKi: −log10 of the molar value. Bridge positions count the residues as written; N and C are the ends. Square brackets hold non-standard residues; d marks the D form. Peptide text beside a SMILES is read from it. dPhe(3,4-F2) = N[C@H](Cc1ccc(F)c(F)c1)C(=O)O; Nle = CCCC[C@H](N)C(=O)O; Orn = NCCC[C@H](N)C(=O)O; Dab = NCC[C@H](N)C(=O)O
MEASURED QUANTITY: pKi

Use these answered entries as a reference point.
{"columns": ["COMPOUND", "MEASURED QUANTITY", "TEST RESULT"],
 "data": [
  ["CCCC[C@H](NC(C)=O)C(=O)N[C@H]1CCC(=O)NCC[C@@H](C(=O)N[C@H](Cc2c[nH]c3ccccc23)C(N)=O)NC(=O)[C@H](CCCNC(=N)N)NC(=O)[C@@H](Cc2ccccc2)NC(=O)[C@H](Cc2c[nH]cn2)NC1=O [Example 9.7]", "pKi", 7.48],
  ["CCCC[C@H](NC(C)=O)C(=O)N[C@H]1CCC(=O)NCC[C@@H](C(=O)N[C@@H](Cc2c[nH]c3ccccc23)C(N)=O)NC(=O)[C@H](CCCNC(=N)N)NC(=O)[C@@H](Cc2ccccc2)NC(=O)[C@H]2CCCN2C1=O [Example 9.66]", "pKi", 6.73],
  ["CCCC[C@H](NC(C)=O)C(=O)N[C@H]1CCC(=O)NCC[C@@H](C(N)=O)NC(=O)[C@@H](Cc2ccccc2)NC(=O)[C@H](Cc2c[nH]cn2)NC1=O [Example 9.46, Ac-Nle-cyclo(Glu-His-D-Phe-Dab)-NH2] (Ac-[Nle]EH[dF][Dab]-NH2; lactam 2-5)", "pKi", 5.00]
]}

A = CCCC[C@H](NC(C)=O)C(=O)N[C@H]1CCC(=O)NCC[C@@H](C(N)=O)NC(=O)[C@H](CCCNC(=N)N)NC(=O)[C@@H](Cc2ccccc2)NC(=O)[C@@H]2CCCN2C1=O [Example 9.65, Ac-Nle-cyclo(Glu-Pro-D-Phe-Arg-Dab)-NH2]
B = CCCC[C@H](NC(C)=O)C(=O)N[C@H]1CCC(=O)NCC[C@@H](C(=O)N[C@@H](Cc2c[nH]c3ccccc23)C(N)=O)NC(=O)[C@H](CCCNC(=N)N)NC(=O)[C@@H](Cc2ccccc2)NC(=O)[C@H](CCN)NC1=O [Example 9.41]
For the pair A and B , which member has the lower pKi number? Indicate your choice by writing its label.
A

1 = CCCC[C@H](NC(C)=O)C(=O)N[C@H]1CCC(=O)NCC[C@@H](C(=O)N[C@@H](Cc2c[nH]c3ccccc23)C(N)=O)NC(=O)CNC(=O)[C@@H](Cc2ccccc2)NC(=O)[C@H](Cc2c[nH]cn2)NC1=O [Example 9.34] (Ac-[Nle]EH[dF]G[Dab]W-NH2; lactam 2-6)
2 = CC(=O)N[C@H](Cc1ccccc1)C(=O)N[C@H]1CCC(=O)NCC[C@@H](C(=O)N[C@@H](Cc2c[nH]c3ccccc23)C(N)=O)NC(=O)[C@H](CCCNC(=N)N)NC(=O)[C@@H](Cc2ccccc2)NC(=O)[C@H](Cc2c[nH]cn2)NC1=O [Example 9.12]
For the pair 1 and 2 , which member has the lower pKi number? Indicate your choice by writing its label.
1
(1: 5.00, 2: 6.27)

I = CCCC[C@H](NC(C)=O)C(=O)N[C@H]1CCC(=O)NCC[C@@H](C(N)=O)NC(=O)[C@H](CCCNC(=N)N)NC(=O)[C@@H](Cc2ccc(F)c(F)c2)NC(=O)[C@H](CCCN)NC1=O [Example 9.62] (Ac-[Nle]E[Orn][dPhe(3,4-F2)]R[Dab]-NH2; lactam 2-6)
II = CCCC[C@H](NC(C)=O)C(=O)N[C@H]1CCC(=O)NC[C@@H](C(=O)N[C@@H](Cc2c[nH]c3ccccc23)C(=O)O)NC(=O)[C@H](CCCNC(=N)N)NC(=O)[C@@H](Cc2ccccc2)NC(=O)[C@H](Cc2c[nH]cn2)NC1=O [Example 9.26]
III = CCCC[C@H](NC(C)=O)C(=O)N[C@H]1CCC(=O)NC[C@@H](C(=O)N[C@@H](Cc2c[nH]c3ccccc23)C(N)=O)NC(=O)[C@H](CCCNC(=N)N)NC(=O)[C@@H](Cc2ccccc2)NC(=O)[C@H](Cc2c[nH]cn2)NC1=O [Example 9.3]
Order these by pKi, descending, and give the full ranking. Answer by listing the labels in the order asked for.
III, II, I

I = CCCC[C@H](NC(C)=O)C(=O)N[C@H]1CCC(=O)NCC[C@@H](C(N)=O)NC(=O)[C@H](CCCNC(=N)N)NC(=O)[C@@H](Cc2ccc(OC)cc2)NC(=O)[C@H](CCCN)NC1=O [Example 9.64] (Ac-[Nle]E[Orn][dY](Me)R[Dab]-NH2; lactam 2-6)
II = CCCC[C@H](NC(C)=O)C(=O)N[C@H]1CCC(=O)NCC[C@@H](C(=O)N[C@H](Cc2cccc3ccccc23)C(N)=O)NC(=O)[C@H](CCCNC(=N)N)NC(=O)[C@@H](Cc2ccccc2)NC(=O)[C@H](Cc2c[nH]cn2)NC1=O [Example 9.9]
For the pair I and II , which member has the lower pKi number? Indicate your choice by writing its label.
I

---

biological target: UniProt:P32245; test: Competitive inhibition binding assay using [I125]-NDP-α-MSH, hMCR-4; conditions: membrane homogenates of HEK-293 cells, human recombinant receptor, averaged, read-out: MC-4 Ki (average)
pKi: −log10 of the molar value.
MEASURED QUANTITY: pKi

1 = CCCC[C@H](NC(C)=O)C(=O)N[C@H]1CCC(=O)NCC[C@@H](C(=O)N[C@@H](Cc2c[nH]c3ccccc23)C(N)=O)NC(=O)[C@H](CCCNC(=N)N)NC(=O)[C@@H](Cc2ccccc2)NC(=O)[C@H](CCCNC(N)=O)NC1=O
2 = CCCC[C@H](NC(C)=O)C(=O)N[C@H]1CCC(=O)NCC[C@@H](C(=O)N[C@@H](Cc2c[nH]c3ccccc23)C(N)=O)NC(=O)[C@H](CCCNC(=N)N)NC(=O)[C@@H](Cc2ccccc2)NC(=O)[C@H](C)NC1=O
3 = CCCC[C@H](NC(C)=O)C(=O)N[C@H]1CCC(=O)NCC[C@@H](C(=O)N[C@@H](Cc2ccc3ccccc3c2)C(N)=O)NC(=O)[C@H](CCCNC(=N)N)NC(=O)[C@@H](Cc2ccccc2)NC(=O)[C@H](Cc2c[nH]cn2)NC1=O
Which order do the items above take when sorted by pKi from high to low? Answer by listing the labels in the order asked for.
3, 1, 2
(3: 8.52, 1: 7.01, 2: 6.34)

---

Molecular target: hMCR-4 (Homo sapiens (Human))
Assay: Competitive inhibition binding assay using [I125]-NDP-α-MSH, hMCR-4
Settings: membrane homogenates of HEK-293 cells, human recombinant receptor, averaged, read-out: MC-4 Ki (average)
Description: A competitive inhibition binding assay was performed using membrane homogenates prepared from HEK-293 cells that express recombinant hMCR-1a or hMCR-4 (in each instance where the h prefix refers to human), or alternatively membrane homogenates from B16-F10 mouse melanoma cells containing endogenous murine MCR-1. […] Plates were counted in a Microbeta counter for bound radioactivity. […] Ki values for peptides of the present invention were determined using Graph-Pad Prism® curve-fitting software. […]
Bridge positions count the residues as written; N and C are the ends. Square brackets hold non-standard residues; d marks the D form. Peptide text beside a SMILES is read from it. dPhe(4-Cl) = N[C@H](Cc1ccc(Cl)cc1)C(=O)O; Nle = CCCC[C@H](N)C(=O)O; Orn = NCCC[C@H](N)C(=O)O; Dab = NCC[C@H](N)C(=O)O
MEASURED QUANTITY: Ki (nM)

{"columns": ["COMPOUND", "Ki, nM"],
 "data": [
  ["CCCC[C@H](NC(C)=O)C(=O)N[C@H]1CCC(=O)NCC[C@@H](C(N)=O)NC(=O)[C@H](CCCNC(=N)N)NC(=O)[C@@H](Cc2ccccc2)NC(=O)[C@H](CCCN)NC1=O [Example 9.56, Ac-Nle-cyclo(Glu-Orn-D-Phe-Arg-Dab)-NH2] (Ac-[Nle]E[Orn][dF]R[Dab]-NH2; lactam 2-6)", 3620]
]}

I = CCCC[C@H](NC(C)=O)C(=O)N[C@H]1CCC(=O)NCC[C@@H](C(=O)N[C@@H](Cc2c[nH]c3ccccc23)C(N)=O)NC(=O)[C@H](CCCNC(=N)N)NC(=O)[C@@H](Cc2ccccc2)NC(=O)[C@H](CCCNC(=N)N)NC1=O [Example 9.37]
II = CCCC[C@H](NC(C)=O)C(=O)N[C@H]1CCC(=O)NCC[C@@H](C(N)=O)NC(=O)[C@H](CCCNC(=N)N)NC(=O)[C@@H](Cc2ccc(Cl)cc2)NC(=O)[C@H](CCCN)NC1=O [Example 9.59] (Ac-[Nle]E[Orn][dPhe(4-Cl)]R[Dab]-NH2; lactam 2-6)
III = CCCC[C@H](NC(C)=O)C(=O)N[C@H]1CCNC(=O)CCC(=O)NC[C@@H](C(=O)N[C@@H](Cc2c[nH]c3ccccc23)C(N)=O)NC(=O)[C@H](CCCNC(=N)N)NC(=O)[C@@H](Cc2ccccc2)NC(=O)[C@H](Cc2c[nH]cn2)NC1=O [Example 9.29]
Order these by Ki, descending, and give the full ranking. Answer by listing the labels in the order asked for.
II, III, I
(II: 1240 nM, III: 325 nM, I: 20 nM)

All values here come from patent US9447148B2.
